The measurements presented in this section are drawn from paper PMC9948186.

Item-by-item account of IC50
- subject.of.test: Microtubule affinity regulatory kinase 4 (MARK4) (Homo sapiens, UniProt Q96L34)
- Sequence (Q96L34 1-752): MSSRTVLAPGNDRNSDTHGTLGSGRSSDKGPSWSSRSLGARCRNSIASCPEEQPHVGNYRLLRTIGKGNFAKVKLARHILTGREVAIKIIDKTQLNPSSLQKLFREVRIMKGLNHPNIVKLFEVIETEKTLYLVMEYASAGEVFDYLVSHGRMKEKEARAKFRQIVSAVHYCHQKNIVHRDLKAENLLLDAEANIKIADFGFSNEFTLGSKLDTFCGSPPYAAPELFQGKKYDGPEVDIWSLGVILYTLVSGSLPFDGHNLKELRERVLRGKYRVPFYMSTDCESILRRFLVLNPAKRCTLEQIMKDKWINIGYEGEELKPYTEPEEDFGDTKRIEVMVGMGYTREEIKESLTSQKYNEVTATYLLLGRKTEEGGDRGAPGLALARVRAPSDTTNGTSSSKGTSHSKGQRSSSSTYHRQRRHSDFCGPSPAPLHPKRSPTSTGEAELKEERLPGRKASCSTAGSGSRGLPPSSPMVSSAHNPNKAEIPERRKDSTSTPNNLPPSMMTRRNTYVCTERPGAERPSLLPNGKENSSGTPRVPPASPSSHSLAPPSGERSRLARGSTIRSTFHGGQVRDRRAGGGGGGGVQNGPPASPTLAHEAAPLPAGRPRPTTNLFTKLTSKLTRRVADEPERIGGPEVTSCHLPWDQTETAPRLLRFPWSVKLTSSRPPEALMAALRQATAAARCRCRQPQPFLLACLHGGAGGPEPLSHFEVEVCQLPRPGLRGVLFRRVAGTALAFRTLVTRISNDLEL
Only the number, expressed in µM, is required.

{"columns": ["compound", "IC50 (µM)"],
 "data": [
  ["OC[C@H]1O[C@@H](c2ccc(Cl)c(Cc3ccc(O[C@H]4CCOC4)cc3)c2)[C@H](O)[C@@H](O)[C@@H]1O [empagliflozin]", 7.1]
]}

Next up:
stdin: Please give the documented IC50 of CC#CCn1c(N2CCC[C@@H](N)C2)nc2c1c(=O)n(Cc1nc(C)c3ccccc3n1)c(=O)n2C [linagliptin]
stdout: 7.63
